So I've got a bunch of compounds here, and I need their Cellular viability (%) (+) microsome values.
system: Human liver cancer cell line HepG2 cells; test: Cellular viability, WST-8 assay, without or with human liver microsomes; format: cell-based; conditions: at 160 μM, HepG2, with human liver microsomes
One number for each entry, in at %.

CCNC(=O)c1nc(-c2ccc(C(F)(F)F)cc2)oc1-c1cccnc1
108

Provide the reported Cellular viability (%) (+) microsome of each entry below, same order.
1. CCCNC(=O)c1nc(-c2ccc(C(F)(F)F)cc2)oc1-c1cccnc1
2. CCNC(=O)c1nc(-c2ccc(C(F)(F)F)cc2)oc1-c1ccccc1
3. CCNC(=O)c1nc(-c2ccc(C(F)(F)F)cc2)oc1-c1cc(O)cc(O)c1
4. CCCNC(=O)c1nc(-c2ccc(SC)cc2)oc1-c1ccccc1
5. CCNC(=O)c1nc(-c2ccc(SC)cc2)oc1-c1ccccc1
6. CCNC(=O)c1nc(-c2ccc(C(F)(F)F)cc2)oc1-c1cccc(SC)c1
7. CCNC(=O)c1nc(-c2ccc(C(F)(F)F)cc2)oc1-c1cc(O)c(O)c(O)c1

RESULT:
1: 29; 2: 90; 3: 90; 4: 89; 5: 100; 6: 102; 7: 77

* * *

Target: IL33 and ST2 binding (Homo sapiens, UniProt O95760)
Sequence (O95760 112-270 limits assumed): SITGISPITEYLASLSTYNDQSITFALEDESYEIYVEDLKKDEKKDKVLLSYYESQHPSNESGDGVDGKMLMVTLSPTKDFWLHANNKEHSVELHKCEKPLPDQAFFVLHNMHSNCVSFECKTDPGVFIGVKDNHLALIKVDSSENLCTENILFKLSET
Settings: 30 µM
Can you tell me inhibition for the items I'm about to list?
Answers are plain numbers, in %.

Here's what some known entries look like.
CN(C)CCNC(=O)c1nc(-c2ccc(C(C)(C)C)cc2)oc1-c1ccccc1
5
CCOC(=O)c1nc(-c2ccc(C(C)(C)C)cc2)oc1-c1ccc(N(C(C)=O)C(C)=O)cc1
19

The following compounds each have a reported value; give each one's inhibition.
1. CSc1ccc(-c2nc(C(=O)NCCN3CCN(C)CC3)c(-c3ccccc3)o2)cc1
2. CN1CCN(CCNC(=O)c2nc(-c3cccc(OC(F)(F)F)c3)oc2-c2ccccc2[N+](=O)[O-])CC1
3. CN1CCN(CCNC(=O)c2nc(-c3ccc(-c4ccccc4)cc3)oc2-c2ccccc2)CC1
4. CN1CCN(CCNC(=O)c2nc(-c3cccc(C(F)(F)F)c3)oc2-c2ccccc2)CC1
5. CN1CCN(CCNC(=O)c2nc(-c3ccc4ccccc4c3)oc2-c2ccccc2[N+](=O)[O-])CC1
6. CCOC(=O)c1nc(-c2ccc(C(F)(F)F)cc2)oc1-c1ccccc1OC

RESULT:
1. 97
2. 7
3. -20
4. -18
5. 9
6. 100

Field: inhibition. Fill in for each record below.
1. CCOC(=O)c1nc(-c2ccc(C(F)(F)F)cc2)oc1-c1cccc(C#N)c1
2. CS(=O)(=O)NCCNC(=O)c1nc(-c2ccc(C(F)(F)F)cc2)oc1-c1ccccc1[N+](=O)[O-]
3. O=C(NCCc1ccc(O)cc1)c1nc(-c2ccc(C(F)(F)F)cc2)oc1-c1ccccc1[N+](=O)[O-]
4. CN1CCN(CCNC(=O)c2nc(-c3ccccc3C(F)(F)F)oc2-c2ccccc2)CC1
5. CCOC(=O)c1nc(-c2ccc(C#N)cc2)oc1-c1ccccc1

RESULT:
[115, 43, 27, 24, 41]

Kindly give each listed record's inhibition.
1. CN(C)CCNC(=O)c1nc(-c2ccc(N(C)C)cc2)oc1-c1ccccc1
2. CN1CCN(CCNC(=O)c2nc(-c3ccc(C(F)(F)F)cc3)oc2-c2ccccc2[N+](=O)[O-])CC1
3. COc1ccc(-c2nc(C(=O)NCCN3CCN(C)CC3)c(-c3ccccc3)o2)cc1

RESULT:
1. 3
2. 92
3. -34

* * *

molecular target: IL33 and ST2 binding (Homo sapiens, UniProt O95760); conditions: 100 µM
Measured metric: inhibition (%)
One number for each entry, in %.

Check out these entries, answers already filled in.
CN(C)CCNC(=O)c1nc(-c2ccc(F)cc2)oc1-c1ccccc1[N+](=O)[O-] [Compound 226]
-8
CCOC(=O)c1nc(-c2cccc(OC)c2)oc1-c1ccccc1 [Compound 60]
68

Please report inhibition for every entry that follows.
1. O=C(c1nc(-c2ccc(C(F)(F)F)cc2)oc1-c1ccccc1[N+](=O)[O-])N1CCCC1 [Compound 138]
2. CN(C)CCNC(=O)c1nc(-c2ccc([N+](=O)[O-])cc2)oc1-c1ccccc1 [Compound 275]

RESULT:
[11, -28]

* * *

system: IL-6 secretion in the human mast cell line HMC 1.1; experiment: IL-6 production inhibition assay (IL-33 stimulated HMC 1.1 cells, IL-6 ELISA); type: cell-based; conditions: read-out: Inhibition of hIL-6 production EC50
pEC50: −log10 of the molar value.
Label Criterion met for high-side pEC50 (at or above 6) and Criterion not met for low-side pEC50 (below it).

QUERY: Could you tell me if the measured pEC50 of CCCNC(=O)c1nc(-c2ccc(C(F)(F)F)cc2)oc1-c1cccc(SC)c1 reaches 6 or more?
RESULT: Criterion met

QUERY: Say whether CCOC(=O)c1nc(-c2ccc(C(F)(F)F)cc2)oc1-c1ccccc1OC(F)(F)F shows pEC50 of 6 or more.
RESULT: Criterion not met

QUERY: Does CN(C)CCNC(=O)c1nc(-c2ccc(Cl)cc2)oc1-c1ccccc1[N+](=O)[O-] have a reported pEC50 of at least 6?
RESULT: Criterion not met

QUERY: Would you say CCNC(=O)c1nc(-c2ccc(C(F)(F)F)cc2)oc1-c1cccc(SC)c1 shows pEC50 at minimum 6?
RESULT: Criterion met

QUERY: // inclusive: pEC50 at least 6? input: CCNC(=O)c1nc(-c2ccc(SC)cc2)oc1-c1ccccc1
RESULT: Criterion met

QUERY: Answer whether pEC50 of CCOC(=O)c1nc(-c2ccc(C(F)(F)F)cc2)oc1-c1ccccc1 is greater than or equal to 6.
RESULT: Criterion met

QUERY: Could you verify whether the entry CCNC(=O)c1nc(-c2ccc(C(F)(F)F)cc2)oc1-c1cccc(OC)c1 shows pEC50 of no less than 6?
RESULT: Criterion met

QUERY: Check this compound for pEC50 at or above 6: CCOC(=O)c1nc(-c2ccc(C(F)(F)F)cc2)oc1-c1cccc(C#N)c1
RESULT: Criterion met

* * *

Task for the reader: assign each of the following molecules its reported inhibition.
Molecular target: IL33 and ST2 binding (Homo sapiens, UniProt O95760)
Sequence (O95760 112-270 limits assumed): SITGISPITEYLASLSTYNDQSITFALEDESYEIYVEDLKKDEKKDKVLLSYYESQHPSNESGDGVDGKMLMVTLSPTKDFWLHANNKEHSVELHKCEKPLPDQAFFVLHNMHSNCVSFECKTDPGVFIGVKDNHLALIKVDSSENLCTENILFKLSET
Details: 100 µM
Numbers only, in %.

Completed entries (count: 3):
CN1CCN(CCNC(=O)c2nc(-c3cccc(OC(F)(F)F)c3)oc2-c2ccccc2[N+](=O)[O-])CC1 [Compound 202]
32
CN1CCN(CCNC(=O)c2nc(-c3ccc(C(C)(C)C)cc3)oc2-c2ccccc2[N+](=O)[O-])CC1 [Compound 269]
44
CCOC(=O)c1nc(-c2ccc(OC)cc2)oc1-c1ccccc1[N+](=O)[O-] [Compound 63]
57

QUERY: I would be grateful if you could share the reported inhibition for CCOC(=O)c1nc(-c2ccc(OC(F)(F)F)cc2)oc1-c1ccccc1 [Compound 58] .
RESULT: 105

* * *

molecular target: IL33 and ST2 binding (Homo sapiens, UniProt O95760); conditions: 100 µM;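 also: plate ELISA with coated Flag-tagged human IL-33 and His-tagged human ST2, bound ST2 detected by anti-His HRP and TMB absorbance at 450 nm, 2 h compound incubation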
Measured metric: inhibition (%)
Numbers only, in %.

CN1CCN(CCNC(=O)c2nc(-c3cc(F)cc(F)c3)oc2-c2ccccc2[N+](=O)[O-])CC1
103
CCOC(=O)c1nc(-c2ccc(C(F)(F)F)cc2)oc1-c1ccccc1OC(F)(F)F
115
CC(=O)NCCNC(=O)c1nc(-c2ccc(C(F)(F)F)cc2)oc1-c1ccccc1[N+](=O)[O-]
72

Could you report inhibition for every entry in the following list?
1. CN(C)CCNC(=O)c1nc(-c2ccc(C(F)(F)F)cc2)oc1-c1ccccc1
2. CCOC(=O)c1nc(-c2ccc(F)c(F)c2)oc1-c1ccccc1[N+](=O)[O-]
3. CN(C)CCCN1CCN(C(=O)c2nc(-c3ccc(C(F)(F)F)cc3)oc2-c2ccccc2[N+](=O)[O-])CC1

RESULT:
1. 6
2. 49
3. 7

Give one value of inhibition per listed molecule.
1. COc1ccc(-c2nc(C(=O)NCCN(C)C)c(-c3ccccc3[N+](=O)[O-])o2)cc1
2. O=C(c1nc(-c2ccc(C(F)(F)F)cc2)oc1-c1ccccc1[N+](=O)[O-])N1CCCCC1
3. O=C(c1ccc(N2CCCCC2)cc1)c1nc(-c2ccc(C(F)(F)F)cc2)oc1-c1ccccc1[N+](=O)[O-]
4. CN(C)CCNC(=O)c1nc(-c2cccc(OC(F)(F)F)c2)oc1-c1ccccc1

RESULT:
-49
-34
5
2

Hi! Can you tell me inhibition for each of these molecules?
1. CCOC(=O)c1nc(-c2ccc(C(F)(F)F)cc2)oc1-c1ccccc1[N+](=O)[O-]
2. O=C(NCc1ccncc1)c1nc(-c2ccc(C(F)(F)F)cc2)oc1-c1ccccc1[N+](=O)[O-]
3. CCOC(=O)c1nc(-c2cccc(F)c2)oc1-c1ccccc1[N+](=O)[O-]

RESULT:
[108, -3, 71]

Can you give me inhibition for all of these, one by one?
1. CCOC(=O)c1nc(-c2ccc(C#N)cc2)oc1-c1ccccc1
2. CN(C)CCNC(=O)c1nc(-c2ccc(F)c(F)c2)oc1-c1ccccc1[N+](=O)[O-]
3. CN1CCN(CCNC(=O)c2nc(-c3ccc([N+](=O)[O-])cc3)oc2-c2ccccc2[N+](=O)[O-])CC1
4. CCOC(=O)c1nc(-c2cc(F)cc(F)c2)oc1-c1ccccc1
5. CCOC(=O)c1nc(-c2ccc(Cl)c(C(F)(F)F)c2)oc1-c1ccccc1
6. CN(C)CCNC(=O)c1nc(-c2ccc(C(C)(C)C)cc2)oc1-c1ccccc1[N+](=O)[O-]
7. CN(C)CCNC(=O)c1nc(-c2ccc3ccccc3c2)oc1-c1ccccc1
8. CN1CCN(CCNC(=O)c2nc(-c3ccc(C#N)cc3)oc2-c2ccccc2)CC1

RESULT:
107
-27
47
22
110
-6
1
9

List the reported inhibition of each molecule below.
1. CCOC(=O)c1nc(-c2ccc(C(F)(F)F)cc2)oc1-c1ccc([N+](=O)[O-])cc1
2. CSc1ccc(-c2nc(C(=O)NCCN3CCN(C)CC3)c(-c3ccccc3[N+](=O)[O-])o2)cc1
3. CN1CCN(CCNC(=O)c2nc(-c3ccc(F)cc3)oc2-c2ccc([N+](=O)[O-])cc2)CC1
4. COc1ccc(-c2nc(C(=O)NCCN3CCN(C)CC3)c(-c3ccccc3)o2)cc1
5. O=C(NCCCn1ccnc1)c1nc(-c2ccc(C(F)(F)F)cc2)oc1-c1ccccc1[N+](=O)[O-]

RESULT:
1: 108; 2: 20; 3: 0; 4: -9; 5: 26

Below is a list of molecules. For each, state its recorded inhibition.
1. CCOC(=O)c1nc(-c2ccc(F)cc2)oc1-c1ccc([N+](=O)[O-])cc1
2. CN(C)CCN1CCN(C(=O)c2nc(-c3ccc(C(F)(F)F)cc3)oc2-c2ccccc2)CC1
3. CN(C)CCNC(=O)c1nc(-c2ccccc2C(F)(F)F)oc1-c1ccccc1
4. CN(C)CCNC(=O)c1nc(-c2cccc(Cl)c2)oc1-c1ccccc1
5. COc1cccc(-c2nc(C(=O)NCCN(C)C)c(-c3ccccc3)o2)c1
6. CN1CCN(CCNC(=O)c2nc(-c3ccc(C(F)(F)F)cc3)oc2-c2ccccc2[N+](=O)[O-])CC1

RESULT:
[48, 79, 10, 70, 55, 95]
